FYI, the data here is from BigSolDB 2.1.

Settings: in isopropanol, 303.15 K
QUANTITY: solubility (mole fraction)
Respond with the number and no other words.

**Q:** Which solubility (mole fraction) value belongs to `O=C(O)[C@@H]1C[C@@H](O)CN1` ?
**A:** 0.000154

* * *

Settings: in isopropanol, 293.15 K
QUANTITY: solubility (mole fraction)
Reply briefly: the number, and no unit.

**Q:** Could you tell me which solubility (mole fraction) is on file for `O=C(O)[C@@H]1C[C@@H](O)CN1` ?
**A:** 9.9e-05

* * *

Details: in 2-butanone, 328.15 K
QUANTITY: solubility (mole fraction)
Answer field: number only, no words.

**Q:** // solubility (mole fraction) lookup, key: `O=C(O)[C@@H]1C[C@@H](O)CN1`
**A:** 0.000865
